# Tested on: methanogenesis in rumen liquor
# assay remarks: In vitro test for methane production (modified Hohenheim Forage value Test)
# Assay type: cell-based
# experimental parameters: 8 h, read-out: effect on methanogenesis (%)

[
  {
    "compound": "O=C(OCCCO[N+](=O)[O-])c1ccccc1 [Compound 11, 3-Nitrooxy-propyl benzoate]",
    "target desc": "methanogenesis in rumen liquor",
    "inhibition at 0.01 % / %": 11
  },
  {
    "compound": "CCC(=O)OCCCO[N+](=O)[O-] [Compound 7, 3-Nitrooxy-propyl propionate]",
    "target desc": "methanogenesis in rumen liquor",
    "inhibition at 0.01 % / %": 21
  },
  {
    "compound": "O=[N+]([O-])OCCCO",
    "target desc": "methanogenesis in rumen liquor",
    "inhibition at 0.01 % / %": 79
  },
  {
    "compound": "CCCCCC(=O)OCCCO[N+](=O)[O-] [Compound 12, 3-Nitrooxy-propyl hexanoate]",
    "target desc": "methanogenesis in rumen liquor",
    "inhibition at 0.01 % / %": 42
  }
]

// data source = patent US9266814B2
